molecular target: CypD (30-207 aa, human recombinant) (Homo sapiens, UniProt P30405); test: Cyclophilin D biochemical FP assay; assay type: binding; details: ligand binding efficiency based on biochemical FP IC50s
Sequence (P30405 30-207): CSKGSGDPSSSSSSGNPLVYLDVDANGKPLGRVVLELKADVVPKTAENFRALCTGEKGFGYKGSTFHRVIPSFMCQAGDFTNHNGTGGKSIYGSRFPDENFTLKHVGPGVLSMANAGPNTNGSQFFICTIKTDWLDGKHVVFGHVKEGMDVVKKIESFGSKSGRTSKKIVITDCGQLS

MOLECULE | Biochemical CypD FP assay LE
CCN1Cc2cc(CNC(=O)CN3C(=O)[C@@H]4[C@H]5CC[C@H](C5)[C@@H]4C3=O)ccc2NCCC1=O | 0.18
Nc1ccc(CCNC(=O)CN2C(=O)C3C4CCC(C4)C3C2=O)cc1 (stereo not drawn) | 0.18
O=C(CN1C(=O)[C@@H]2[C@H]3CC[C@H](C3)[C@@H]2C1=O)NCc1ccc2c(c1)[C@H]1C[C@@H](N2)[C@H](O)CO1 | 0.27
CCN1Cc2cc(CCC(=O)NCC(=O)N3CCC[C@@H]3c3ccccc3SC)ccc2NCCC1=O | 0.21
O=C(NCc1ccc2c(c1)[C@@H]1C[C@H](N2)[C@H](O)CO1)C(=O)N1CCCC1 | 0.16
O=C(CN1C(=O)[C@@H]2[C@@H]3CC[C@@H](C3)[C@@H]2C1=O)NCc1ccc2c(c1)[C@H]1C[C@@H](N2)[C@H](O)CO1 | 0.26

###

Examples of molecules with documented Kd follow.
molecular target: Recombinant human Cyclophilin D protein (amino acids 44-207, K175I) (Homo sapiens, UniProt P30405, K175I); assay: CypD SPR binding assay
Sequence (P30405 44-207 K175I): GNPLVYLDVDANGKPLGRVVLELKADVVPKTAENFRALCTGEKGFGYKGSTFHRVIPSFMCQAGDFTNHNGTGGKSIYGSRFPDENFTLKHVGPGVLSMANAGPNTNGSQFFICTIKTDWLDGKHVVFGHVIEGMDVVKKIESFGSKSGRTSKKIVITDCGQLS

MOLECULE | RESULT QUALIFIER | Kd (µM)
O=C(NCc1ccc2c(c1)[C@H]1C[C@@H](N2)[C@H](O)CO1)C(=O)N1CCCC1 | > | 1500
O=C(NCc1ccc2c(c1)[C@@H]1C[C@H](N2)[C@H](O)CO1)C(=O)NC1CCCC1 | = | 217
CCN1Cc2cc(CNC(=O)CN3C(=O)[C@@H]4[C@H]5CC[C@H](C5)[C@@H]4C3=O)ccc2NCCC1=O | = | 51
CSc1ccccc1[C@H]1CCCN1C(=O)CNC(=O)NCc1ccc(N)cc1 [compound 2, reference compound] | = | 0.23
